System: Jurkat
assay-explanation: Cytotoxicity against Jurkat cell line (human T-cell leukemia cells)
Assay type: functional, cell-based
endpoint-label: IC50 (µM)

[
  {
    "compound": "CCCCCCCC(=O)N(C)[C@@H](CC(C)C)C(=O)N[C@H](C(=O)N(C)[C@H](C(=O)N1C[C@@H](O)C[C@H]1C(=O)N1C(=O)C=C[C@@H]1C)C(C)C)C(C)OC(C)=O (stereo partly specified)",
    "endpoint-label": "IC50",
    "unit-text": "µM",
    "measured-number": 0.0394
  }
]

====

Tested on: EL4
assay-explanation: Cytotoxicity against mouse thymoma cells (EL-4 cell lines)
Format: functional, cell-based
pIC50: −log10 of the molar value.
endpoint-label: pIC50

[
  {
    "molecule": "CCCCCCCC(=O)N(C)[C@@H](CC(C)C)C(=O)N[C@H](C(=O)N(C)[C@H](C(=O)N1C[C@@H](O)C[C@H]1C(=O)N1C(=O)C=C[C@@H]1C)C(C)C)C(C)OC(C)=O (stereo partly specified)",
    "tested-on": "EL4",
    "measured-number": 7.34
  }
]

====

Organism: Mus musculus
assay-explanation: Cytotoxicity against mouse mixed lymphocyte reaction
Type: functional
endpoint-label: IC50 (nM)

[
  {
    "molecule": "CCCCCCCC(=O)N(C)[C@@H](CC(C)C)C(=O)N[C@H](C(=O)N(C)[C@H](C(=O)N1C[C@@H](O)C[C@H]1C(=O)N1C(=O)C=C[C@@H]1C)C(C)C)C(C)OC(C)=O (stereo partly specified)",
    "endpoint-label": "IC50",
    "measured-number": 32.8
  }
]
